Where do the numbers come from? From ChEMBL document CHEMBL1909294.

Listed here: compounds with reported HepSE_liver function tests abnormal for Hepatotoxicity.

compound: COc1ccc(C[C@@H]2c3cc(OC)c(OC)cc3CC[N@+]2(C)CCC(=O)OCCCCCOC(=O)CC[N@@+]2(C)CCc3cc(OC)c(OC)cc3[C@H]2Cc2ccc(OC)c(OC)c2)cc1OC
measured target: Hepatotoxicity
HepSE_liver function tests abnormal: 0
--
compound: Clc1ccc2c(c1)C(c1ccccc1)=NCc1nncn1-2
measured target: Hepatotoxicity
HepSE_liver function tests abnormal: 0
--
compound: CO[C@]12CC[C@@]3(C[C@@H]1[C@](C)(O)C(C)(C)C)[C@H]1Cc4ccc(O)c5c4[C@@]3(CCN1CC1CC1)[C@H]2O5
measured target: Hepatotoxicity
HepSE_liver function tests abnormal: 0
--
compound: CC1(C)O[C@@H]2C[C@H]3[C@@H]4CCC5=CC(=O)C=C[C@]5(C)[C@H]4[C@@H](O)C[C@]3(C)[C@]2(C(=O)CO)O1 [DESONIDE]
measured target: Hepatotoxicity
HepSE_liver function tests abnormal: 0
--
compound: C[C@@H]1O[C@@H]1P(=O)(O)O
measured target: Hepatotoxicity
HepSE_liver function tests abnormal: 0
--
compound: C=CCN1C[C@H](C(=O)N(CCCN(C)C)C(=O)NCC)C[C@@H]2c3cccc4[nH]cc(c34)C[C@H]21
measured target: Hepatotoxicity
HepSE_liver function tests abnormal: 1
--
compound: Nc1nc2c(c(=O)[nH]1)N(C=O)C(CNc1ccc(C(=O)N[C@@H](CCC(=O)O)C(=O)O)cc1)CN2 (stereo partly specified)
measured target: Hepatotoxicity
HepSE_liver function tests abnormal: 0
--
compound: CCC1(c2ccccc2)NC(=O)N(C)C1=O (stereo unspecified)
measured target: Hepatotoxicity
HepSE_liver function tests abnormal: 0
--
compound: COC(=O)Nc1nc2ccc(C(=O)c3ccccc3)cc2[nH]1
measured target: Hepatotoxicity
HepSE_liver function tests abnormal: 0
--
compound: OC[C@H]1O[C@@H](n2cnc3c2NC=NC[C@H]3O)C[C@@H]1O
measured target: Hepatotoxicity
HepSE_liver function tests abnormal: 1
--
compound: CN1CC[C@]23c4c5ccc(O)c4O[C@H]2C(=O)CC[C@H]3[C@H]1C5 [HYDROMORPHONE]
measured target: Hepatotoxicity
HepSE_liver function tests abnormal: 1
--
compound: Cc1ccnc2c1NC(=O)c1cccnc1N2C1CC1
measured target: Hepatotoxicity
HepSE_liver function tests abnormal: 1
--
compound: CC[C@@H]1/C=C(\C)C[C@H](C)C[C@H](OC)[C@H]2O[C@@](O)(C(=O)C(=O)N3CCCC[C@H]3C(=O)O[C@H](/C(C)=C/[C@@H]3CC[C@H](Cl)[C@H](OC)C3)[C@H](C)[C@@H](O)CC1=O)[C@H](C)C[C@@H]2OC
measured target: Hepatotoxicity
HepSE_liver function tests abnormal: 0
--
compound: CO/N=C(\C(=O)N[C@@H]1C(=O)N2C(C(=O)O)=C(COC(N)=O)CS[C@H]12)c1ccco1
measured target: Hepatotoxicity
HepSE_liver function tests abnormal: 0
--
compound: Fc1ccc([C@@H]2CCNC[C@H]2COc2ccc3c(c2)OCO3)cc1
measured target: Hepatotoxicity
HepSE_liver function tests abnormal: 1
--
compound: N[C@@H](Cc1cc(I)c(Oc2cc(I)c(O)c(I)c2)c(I)c1)C(=O)O
measured target: Hepatotoxicity
HepSE_liver function tests abnormal: 0

====

# maps each entry to its HepSE_Combined Scores
- Tested on: Hepatotoxicity
- assay setup: Liver

compound: CC(=O)[O-].[Na+] [SODIUM ACETATE]
HepSE_Combined Scores: 0
--
compound: CNCCCN1c2ccccc2CCc2ccccc21 [DESIPRAMINE]
HepSE_Combined Scores: 3
--
compound: O=P(O)(O)O [PHOSPHORIC ACID]
HepSE_Combined Scores: 0
--
compound: CC(C)NCC(O)COc1ccc(CC(N)=O)cc1 (stereo unspecified) [ATENOLOL]
HepSE_Combined Scores: 0
--
compound: NCC(=O)O [GLYCINE]
HepSE_Combined Scores: 0
--
compound: COc1ccc2cc([C@H](C)C(=O)O)ccc2c1 [NAPROXEN]
HepSE_Combined Scores: 6
--
compound: Cn1cnc([N+](=O)[O-])c1Sc1ncnc2nc[nH]c12 [AZATHIOPRINE]
HepSE_Combined Scores: 0
--
compound: C#CCN[C@@H]1CCc2ccccc21 [RASAGILINE]
HepSE_Combined Scores: 2
--
compound: CC(C)(C(=O)O)c1ccc(C(O)CCCN2CCC(C(O)(c3ccccc3)c3ccccc3)CC2)cc1 (stereo unspecified) [FEXOFENADINE]
HepSE_Combined Scores: 0
--
compound: CNCC[C@H](Oc1cccc2ccccc12)c1cccs1 [DULOXETINE]
HepSE_Combined Scores: 3
--
compound: O=C1CN(/N=C/c2ccc([N+](=O)[O-])o2)C(=O)N1 [NITROFURANTOIN]
HepSE_Combined Scores: 3

====

- System: Hepatotoxicity
# maps each entry to its HepSE_Combined Scores

compound: COc1cc([C@@H]2c3cc4c(cc3[C@@H](O[C@@H]3O[C@@H]5CO[C@@H](c6cccs6)O[C@H]5[C@H](O)[C@H]3O)[C@H]3COC(=O)[C@H]23)OCO4)cc(OC)c1O [TENIPOSIDE]
HepSE_Combined Scores: 0
//
compound: COc1cc2ncnc(Nc3ccc(F)c(Cl)c3)c2cc1OCCCN1CCOCC1 [GEFITINIB]
HepSE_Combined Scores: 0
//
compound: [Li] [LITHIUM]
HepSE_Combined Scores: 0
//
compound: Nc1cc(N2CCCCC2)nc(N)[n+]1[O-] [MINOXIDIL]
HepSE_Combined Scores: 0
//
compound: CCCCc1nc(N)[se]c1CCC
HepSE_Combined Scores: 0
//
compound: COCc1c(C(C)C)nc(C(C)C)c(/C=C/[C@@H](O)C[C@@H](O)CC(=O)O)c1-c1ccc(F)cc1 [CERIVASTATIN]
HepSE_Combined Scores: 4
//
compound: O=C1CCC(N2C(=O)c3ccccc3C2=O)C(=O)N1 (stereo not given) [THALIDOMIDE]
HepSE_Combined Scores: 4
//
compound: O=P1(NCCCl)OCCCN1CCCl (stereo not given) [IFOSFAMIDE]
HepSE_Combined Scores: 0
//
compound: CCC(=O)C(CC(C)N(C)C)(c1ccccc1)c1ccccc1 (stereo not given) [METHADONE]
HepSE_Combined Scores: 0
//
compound: CC(C)CN(C[C@@H](OP(=O)(O)O)[C@H](Cc1ccccc1)NC(=O)O[C@H]1CCOC1)S(=O)(=O)c1ccc(N)cc1 [FOSAMPRENAVIR]
HepSE_Combined Scores: 0
//
compound: CCCCC(=O)OCC(=O)[C@]1(O)Cc2c(O)c3c(c(O)c2[C@@H](O[C@H]2C[C@H](NC(=O)C(F)(F)F)[C@H](O)[C@H](C)O2)C1)C(=O)c1c(OC)cccc1C3=O [VALRUBICIN]
HepSE_Combined Scores: 0
//
compound: COc1cc(CC2c3c(cc(OC)c(OC)c3OC)CC[N+]2(C)CCCOC(=O)CCC(=O)OCCC[N+]2(C)CCc3cc(OC)c(OC)c(OC)c3C2Cc2cc(OC)c(OC)c(OC)c2)cc(OC)c1OC (stereo not given) [DOXACURIUM]
HepSE_Combined Scores: 0
//
compound: S=P(N1CC1)(N1CC1)N1CC1 [THIOTEPA]
HepSE_Combined Scores: 1
//
compound: NNC(=O)c1ccncc1 [ISONIAZID]
HepSE_Combined Scores: 2
//
compound: C/C(=C\C(=O)OCCCCCCCCC(=O)O)C[C@@H]1OC[C@H](C[C@@H]2O[C@H]2[C@@H](C)[C@H](C)O)[C@@H](O)[C@H]1O [MUPIROCIN]
HepSE_Combined Scores: 0
//
compound: Cc1nc2n(c(=O)c1CCN1CCC(c3noc4cc(F)ccc34)CC1)CCCC2 [RISPERIDONE]
HepSE_Combined Scores: 8
//
compound: CC(CN1c2ccccc2Sc2ccccc21)N(C)C (stereo not given) [PROMETHAZINE]
HepSE_Combined Scores: 1
//
compound: COc1cccc2c1C(=O)c1c(O)c3c(c(O)c1C2=O)C[C@@](O)(C(=O)CO)C[C@@H]3O[C@H]1C[C@H](N)[C@H](O)[C@H](C)O1 [DOXORUBICIN]
HepSE_Combined Scores: 5
//
compound: CN(C)CCOC(=O)C(c1ccccc1)C1(O)CCCC1 (stereo not given) [CYCLOPENTOLATE]
HepSE_Combined Scores: 0
//
compound: CC1(C)C(C=C(Cl)Cl)C1C(=O)OCc1cccc(Oc2ccccc2)c1 (stereo not given) [PERMETHRIN]
HepSE_Combined Scores: 0
//
compound: CCN1CCN(C(=O)N[C@@H](C(=O)N[C@@H]2C(=O)N3[C@@H]2SC(C)(C)[C@@H]3C(=O)O)c2ccccc2)C(=O)C1=O [PIPERACILLIN]
HepSE_Combined Scores: 3
//
compound: Nc1ccn(C[C@@H](CO)OCP(=O)(O)O)c(=O)n1.O.O [CIDOFOVIR]
HepSE_Combined Scores: 4
//
compound: CCOC(=O)[C@H](CCc1ccccc1)N[C@@H](C)C(=O)N1Cc2cc(OC)c(OC)cc2C[C@H]1C(=O)O [MOEXIPRIL]
HepSE_Combined Scores: 1
//
compound: CC[C@@H]1/C=C(\C)C[C@H](C)C[C@H](OC)[C@H]2O[C@@](O)(C(=O)C(=O)N3CCCC[C@H]3C(=O)O[C@H](/C(C)=C/[C@@H]3CC[C@H](Cl)[C@H](OC)C3)[C@H](C)[C@@H](O)CC1=O)[C@H](C)C[C@@H]2OC [PIMECROLIMUS]
HepSE_Combined Scores: 0
//
compound: CC1(C)O[C@@H]2C[C@H]3[C@@H]4CCC5=CC(=O)CC[C@]5(C)[C@@]4(F)[C@@H](O)C[C@]3(C)[C@]2(C(=O)CCl)O1 [HALCINONIDE]
HepSE_Combined Scores: 0
//
compound: CSCC[C@H](NC(=O)[C@H](Cc1ccc(OS(=O)(=O)O)cc1)NC(=O)[C@@H](N)CC(=O)O)C(=O)NCC(=O)N[C@@H](Cc1c[nH]c2ccccc12)C(=O)N[C@@H](CCSC)C(=O)N[C@@H](CC(=O)O)C(=O)N[C@@H](Cc1ccccc1)C(N)=O [SINCALIDE]
HepSE_Combined Scores: 0
//
compound: NC(=O)NO [HYDROXYUREA]
HepSE_Combined Scores: 0
//
compound: CC[C@@H](CO)NC(=O)[C@@H]1C=C2c3cccc4[nH]cc(c34)C[C@H]2N(C)C1 [METHYLERGONOVINE]
HepSE_Combined Scores: 0
//
compound: FC(F)OC(F)C(F)(F)F (stereo not given)
HepSE_Combined Scores: 2
//
compound: N[C@@H]1[C@H]2CN(c3nc4c(cc3F)c(=O)c(C(=O)O)cn4-c3ccc(F)cc3F)C[C@@H]12 [TROVAFLOXACIN]
HepSE_Combined Scores: 5
